target: LSD1 (Homo sapiens); conditions: read-out: IC50 (μM, LSD1 inhibition); 10-dose IC50 mode, singlet, threefold serial dilution starting at 100 μM
Mark each entry satisfied if its IC50 sits below 2 µM, and not satisfied for all others.

compound	class
O=C(CCCCCCC(=O)N[C@@H]1C[C@H]1c1ccccc1)NO [Compound 5]	not satisfied
O=C(CCCCCC(=O)N[C@@H]1C[C@H]1c1ccccc1)NO [Compound 4]	not satisfied
O=C(NO)c1ccc(CN2CCC(S(=O)(=O)N[C@@H]3C[C@H]3c3ccccc3)CC2)cc1 [Compound 10]	not satisfied
O=C(/C=C/c1cccc(S(=O)(=O)N[C@@H]2C[C@H]2c2ccccc2)c1)NO [Compound 2]	satisfied
O=C(/C=C/c1ccc(S(=O)(=O)N[C@@H]2C[C@H]2c2ccccc2)cc1)NO [Compound 3]	satisfied

Please indicate whether the reported IC50 of O=C(CCCCCCCCC(=O)N[C@@H]1C[C@H]1c1ccccc1)NO [Compound 7] is strictly below 2 µM.
not satisfied

Next: O=C(CCCCCCC(=O)Nc1ccc(CN[C@@H]2C[C@H]2c2ccccc2)cc1)NO [Compound 8]
satisfied

Next: O=C(NO)c1ccc(CN[C@@H]2C[C@H]2c2ccccc2)cc1 [Compound 1]
not satisfied
